Tested on: Puccinia recondita f. sp. tritici
Experiment: Test H: wheat leaf rust, test suspension sprayed after inoculation of wheat seedlings, visual disease rating
Type: in vivo
Conditions: 200 ppm; 100 = 100% disease control, 0 = no control relative to controls
Measurement type: Test H disease control rating (%)
Write the value in % as a bare number.

[
  {
    "Compound": "COc1ccc(F)c(-c2c(Cl)nc(Cl)n2-c2cccc(C)c2)c1F [compound 391]",
    "Test H disease control rating (%)": 0
  },
  {
    "Compound": "Cc1nc(Cl)n(-c2ccc(Cl)nc2)c1-c1c(F)cccc1F [compound 693]",
    "Test H disease control rating (%)": 100
  },
  {
    "Compound": "Cc1ncn(-c2ccc(Cl)cn2)c1-c1c(F)cccc1F [compound 320]",
    "Test H disease control rating (%)": 0
  },
  {
    "Compound": "Cc1nc(Cl)n(-c2ccc(Cl)c(F)c2)c1-c1cccnc1Cl [compound 360]",
    "Test H disease control rating (%)": 9
  },
  {
    "Compound": "COc1cc(F)c(-c2c(Cl)nc(Cl)n2-c2ccc(Cl)nc2)c(F)c1 [compound 406]",
    "Test H disease control rating (%)": 100
  }
]

Query :: Quick one: Test H disease control rating of COc1cc(F)c(-c2c(Cl)ncn2Cc2ccc(Cl)nc2)c(F)c1 [compound 669] ?
Result :: 73

Query :: Quick one: Test H disease control rating of COc1cc(F)c(-c2c(Cl)nc(C)n2-c2ccc(F)c(F)c2)c(F)c1 [compound 499] ?
Result :: 100

Query :: Quick one: Test H disease control rating of COc1ccc(F)c(-c2c(Cl)nc(Cl)n2-c2ccc(Br)cc2)c1F [compound 562] ?
Result :: 0

Query :: Quick one: Test H disease control rating of Cc1ncn(-c2ccc(Cl)c(F)c2)c1-c1ccccc1F [compound 318] ?
Result :: 0

###

Form field: Test B disease control rating (one value per entry).
Tested on: Rhizoctonia solani
Assay: Test B: turf brown patch on bentgrass seedlings, sprayed the day before inoculation, visual disease rating
Type: in vivo
Details: 200 ppm; 100 = 100% disease control, 0 = no control relative to controls
Express your answer as a number followed by its unit.

Consider the reported Test B disease control rating for these compounds:
[
  {
    "Compound": "COc1ccc(-c2c(OC)nn(C)c2-c2c(F)cc(OC)cc2F)cc1 [compound 580]",
    "Subject of test": "Rhizoctonia solani",
    "Test B disease control rating": "88%"
  },
  {
    "Compound": "COc1cc(F)c(-c2c(C)nn(C)c2-c2ccc(Cl)c(OC)c2)c(F)c1 [compound 111]",
    "Subject of test": "Rhizoctonia solani",
    "Test B disease control rating": "81%"
  },
  {
    "Compound": "Fc1cc(F)c(-c2c(Cl)nc(Cl)n2-c2ccc(Cl)cc2)c(F)c1 [Compound 6]",
    "Subject of test": "Rhizoctonia solani",
    "Test B disease control rating": "99%"
  }
]

Query :: Quick one: Test B disease control rating of Fc1cccc(F)c1-c1c(Cl)nc(Cl)n1-c1ccc(Cl)cc1 [Compound 3] ?
Result :: 99%

Query :: Quick one: Test B disease control rating of COc1cc(F)c(-c2c(-c3ccc(Cl)cc3)c(OC)nn2C)c(F)c1 [compound 578] ?
Result :: 58%

Query :: Quick one: Test B disease control rating of Cc1ncc(-c2ccc(F)cc2)n1-c1ccc(Cl)cc1 [Compound 4] ?
Result :: 18%

Query :: Quick one: Test B disease control rating of COc1cc(F)c(-c2c(-c3ccc(F)cc3)c(OC)nn2C)c(F)c1 [compound 579] ?
Result :: 92%

Query :: Quick one: Test B disease control rating of Cc1nn(C)c(-c2ccc(Cl)c(F)c2)c1-c1c(F)cc(F)cc1F [compound 104] ?
Result :: 0%

Query :: Quick one: Test B disease control rating of COc1cc(F)c(-c2c(C)nn(C)c2-c2ccc(Cl)c(F)c2)c(F)c1 [compound 115] ?
Result :: 99%

###

Form field: Test I disease control rating (one value per entry).
Tested on: Puccinia recondita f. sp. tritici
Experiment: Test I: wheat leaf rust on wheat seedlings, sprayed the day before inoculation, visual disease rating
Type: in vivo
Conditions: 200 ppm; 100 = 100% disease control, 0 = no control
Write the value in % as a bare number.

Consider the reported Test I disease control rating for these compounds:
[
  {
    "Compound": "Cc1nc(Cl)c(-c2ccc(F)cc2Cl)n1-c1ccc(Cl)c(F)c1 [compound 243]",
    "Test value": 100
  },
  {
    "Compound": "CN(C)c1ncn(Cc2ccc(Cl)cc2)c1-c1c(F)ccc(F)c1F [compound 267]",
    "Test value": 86
  },
  {
    "Compound": "Fc1ccc(F)c(-c2c(Cl)nc(Br)n2Cc2ccc(Cl)cc2)c1F [compound 286]",
    "Test value": 99
  },
  {
    "Compound": "COc1ccc(Cn2c(Cl)nc(Cl)c2-c2c(F)cccc2F)cc1Cl [compound 213]",
    "Test value": 100
  },
  {
    "Compound": "CSc1ccc(F)c(-c2c(Cl)ncn2-c2ccc(Cl)cc2)c1F [compound 215]",
    "Test value": 68
  },
  {
    "Compound": "Cc1nc(Cl)c(-c2c(F)cccc2F)n1-c1ccc(F)c(F)c1 [compound 174]",
    "Test value": 100
  }
]

Query :: Quick one: Test I disease control rating of COc1cc(F)c(-c2c(Cl)nc(C)n2-c2ccc(Cl)cc2)c(Cl)c1 [compound 172] ?
Result :: 99

Query :: Quick one: Test I disease control rating of Cc1ccc(-n2c(Cl)nc(Cl)c2-c2ccc(F)cc2Cl)cc1 [compound 282] ?
Result :: 99

Query :: Quick one: Test I disease control rating of Fc1ccc(SCCl)c(F)c1-c1c(Cl)ncn1-c1ccc(Cl)cc1 [compound 232] ?
Result :: 9

Query :: Quick one: Test I disease control rating of Clc1ccc(-c2c(Cl)nc(Br)n2Cc2cccc(Cl)c2)cc1 [compound 290] ?
Result :: 19

Query :: Quick one: Test I disease control rating of Cc1nc(Cl)c(-c2ccc(F)cc2Cl)n1-c1ccc(F)cc1 [compound 187] ?
Result :: 100

Query :: Quick one: Test I disease control rating of Fc1ccc(-n2cnc(Cl)c2-c2c(F)cccc2Cl)cc1 [compound 180] ?
Result :: 99

Query :: Quick one: Test I disease control rating of Fc1cc(-n2c(Cl)nc(Cl)c2-c2c(F)cccc2F)ccc1Cl [compound 225] ?
Result :: 99

Query :: Quick one: Test I disease control rating of Fc1ccc(F)c(-c2c(Cl)nc(Cl)n2Cc2ccc(Cl)cc2)c1F [compound 285] ?
Result :: 100

Query :: Quick one: Test I disease control rating of CSc1ccc(F)c(-c2c(Cl)nc(Br)n2-c2ccc(Cl)cc2)c1F [compound 231] ?
Result :: 96

Query :: Quick one: Test I disease control rating of COc1cc(F)c(-c2c(Cl)nc(I)n2-c2ccc(Cl)c(F)c2)c(F)c1 [compound 241] ?
Result :: 96

Query :: Quick one: Test I disease control rating of Cc1ccc(-n2c(C)nc(Cl)c2-c2ccc(F)cc2Cl)cc1 [compound 188] ?
Result :: 100

Query :: Quick one: Test I disease control rating of CSc1ccc(F)c(-c2c(Cl)nc(C)n2-c2ccc(Cl)cc2)c1F [compound 235] ?
Result :: 97

Query :: Quick one: Test I disease control rating of COc1cc(F)c(-c2c(Cl)nc(Cl)n2Cc2ccc(Cl)cc2)c(F)c1 [compound 284] ?
Result :: 99

###

Test system: Puccinia recondita f. sp. tritici
Experiment: Test H: wheat leaf rust, test suspension sprayed after inoculation of wheat seedlings, visual disease rating
Assay type: in vivo
Conditions: 200 ppm; 100 = 100% disease control, 0 = no control relative to controls
Measurement type: Test H disease control rating (%)
Write the value in % as a bare number.

Consider the reported Test H disease control rating for these compounds:
[
  {
    "Item smiles": "CN(C)c1ncn(-c2cccc(F)c2)c1-c1c(F)cc(F)cc1F",
    "Test value": 9
  },
  {
    "Item smiles": "Cc1nc(Cl)c(Cc2c(F)cc(F)cc2F)n1-c1c(Cl)cccc1Cl",
    "Test value": 9
  },
  {
    "Item smiles": "COc1ccc(F)c(-c2c(Cl)nc(C)n2-c2ccc(Cl)nc2)c1F",
    "Test value": 96
  },
  {
    "Item smiles": "Fc1cccc(-n2cnc(Cl)c2-c2c(F)ccc(Br)c2F)c1",
    "Test value": 0
  }
]

Alright, here's another compound for you.
Query :: Quick one: Test H disease control rating of COc1ccc(-c2c(Cl)nc(Br)n2-c2ccc(F)cc2)c(Cl)c1 ?
Result :: 15

###

System: Puccinia recondita f. sp. tritici
Experiment: Test H: wheat leaf rust, test suspension sprayed after inoculation of wheat seedlings, visual disease rating
Type: in vivo
Settings: 200 ppm; 100 = 100% disease control, 0 = no control relative to controls
Form field: Test H disease control rating (one value per entry).
Write the value in % as a bare number.

[
  {
    "Item smiles": "COc1cc(F)c(-c2c(Cl)nc(N)n2-c2ccc(Cl)cc2)c(F)c1",
    "Test H disease control rating [%]": 0
  },
  {
    "Item smiles": "COc1cc(F)c(-c2cnc(Cl)n2-c2ccc(C(F)(F)F)nc2)c(F)c1",
    "Test H disease control rating [%]": 0
  },
  {
    "Item smiles": "COc1cc(F)c(-c2c(Cl)nc(C)n2-c2ccc(OC)nc2)c(F)c1",
    "Test H disease control rating [%]": 100
  },
  {
    "Item smiles": "COc1cc(F)c(-c2c(Cl)ncn2-c2ccccc2)c(F)c1",
    "Test H disease control rating [%]": 0
  },
  {
    "Item smiles": "CN(C)c1ccc(-n2c(Br)nc(N(C)C)c2-c2c(F)cccc2F)cc1Br",
    "Test H disease control rating [%]": 0
  },
  {
    "Item smiles": "COc1cc(Cl)c(-c2c(Cl)nc(Cl)n2-c2ccc(Cl)c(F)c2)c(Cl)c1",
    "Test H disease control rating [%]": 0
  },
  {
    "Item smiles": "COc1cc(F)c(-c2c(Br)nc(Cl)n2-c2ccc(C(F)(F)F)nc2)c(F)c1",
    "Test H disease control rating [%]": 25
  },
  {
    "Item smiles": "Cc1ncc(Cc2c(F)cc(F)cc2F)n1-c1c(Cl)cccc1Cl",
    "Test H disease control rating [%]": 37
  }
]

Alright, here's another molecule for you.
Query :: For the record Cc1ccc(-n2cnc(Br)c2-c2c(F)ccc(F)c2F)cc1 , what value of Test H disease control rating is listed for Puccinia recondita f. sp. tritici?
Result :: 0
